protocol_details: A549 lung cancer cell viability effects, profiling panel, resazurin fluorescence, 24 h, PK04 Diversity Set (AID 1171); note: test concentration not given here
condition_set: higher = more signal, called active from +8 up or from −8 down
Calls of active or inactive are those of the source.
parameter: z-score

Q. Requested field: z-score. Item: `CC[C@@H]1C=C(C(=O)O)[C@H](c2ccc(Br)cc2)N1S(=O)(=O)c1ccc(C)cc1`
A. -0.472 (inactive)

Q. Requested field: z-score. Item: `C=CCNC(=O)[C@H]1[C@@H]2C(=O)O[C@@H](c3ccccc3)[C@@H](c3ccccc3)N2[C@@H](c2ccccc2OCCO)[C@]12C(=O)Nc1ccc(C#CCC(C(=O)OC)C(=O)OC)cc12`
A. 0.545 (inactive)

Q. Requested field: z-score. Item: C[C@H]1NC(=O)[C@@]23C(=O)N[C@@H](Cc4ccccc4)C2[C@H](C)[C@@]2(C)O[C@H]2C3/C=C/C/C=C\CNC(=O)[C@@H]2CCCN2C1=O (some centres undefined)
A. 0.437 (inactive)

Q. Requested field: z-score. Item: `COc1ccc([C@H]2OC[C@@H]3C[C@@H](Cc4ccccc4)C(=O)N32)cc1`
A. 0.194 (inactive)

* * *

target_of_assay: Follistatin-related protein 3 (Homo sapiens)
protocol_details: FSTL3 binders on small-molecule microarrays, primary screen, biochemical, small-molecule microarray, 635 nm fluorescence (AID 1105);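 note: score merges emission near 667 nm and signal to noise per printed spot across three slides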
condition_set: FSTL3 binding, higher = more signal
parameter: composite z-score
Please reply with the number alone, leaving off any unit.

Q. Form field: composite z-score recorded for CCC(CC)C(O)C1C=CC2C(=O)NC(=O)C2N1Nc1ccc(Cl)cc1Cl (centres undefined) with Follistatin-related protein 3 (Homo sapiens) (enter value)
A. 0.934

Q. Form field: composite z-score recorded for `C=CCNC(=O)[C@H]1[C@@H]2C(=O)O[C@@H](c3ccccc3)[C@@H](c3ccccc3)N2[C@@H](c2ccccc2OCCO)[C@]12C(=O)Nc1ccc(C#CCC(C(=O)OC)C(=O)OC)cc12` with Follistatin-related protein 3 (Homo sapiens) (enter value)
A. 1.37

Q. Form field: composite z-score recorded for `C=C(CCCC)/C(=C/C[C@H](OC(=O)c1ccncc1)c1ccccc1OCCO)c1cnc2ccccc2c1` with Follistatin-related protein 3 (Homo sapiens) (enter value)
A. 1.49

Q. Form field: composite z-score recorded for `C=C(CCCC)/C(=C/C[C@H](OC(C)=O)c1ccccc1OCCO)c1cc(C(=O)OC)ccc1OC` with Follistatin-related protein 3 (Homo sapiens) (enter value)
A. -0.154

* * *

protocol_details: binders from COS7 lysate, DM2A8 probe, primary screen, torsin A project, cell lysate, small-molecule microarray, fluorescence 635/667 (AID 1065)
condition_set: higher = more signal, COS7 lysate expressing mutant human TOR1A
Please respond with reported composite z-score for every item in the list.
Please reply with the number alone, leaving off any unit.

Q. Requested field: composite z-score. Item: COc1cc(C(O)C2C=CC3C(=O)NC(=O)C3N2Nc2ccccn2)cc(OC)c1OC (stereo not drawn)
A. 0.299

Q. Requested field: composite z-score. Item: `CN(C)C(=O)[C@]1(Cc2ccccc2N=[N+]=[N-])N=C(c2ccc(OCCCO)cc2)O[C@@H]1c1ccccc1N=[N+]=[N-]`
A. 0.827

Q. Requested field: composite z-score. Item: `O=C1c2ccccc2[C@](Cc2ccccc2I)(C(=O)NCC(F)(F)F)[C@H](c2ccc(CO)cc2)N1Cc1ccccc1Cl`
A. 0.0347

Q. Requested field: composite z-score. Item: `O=C1C[C@@](C(=O)NCC(F)(F)F)(c2ccc([N+](=O)[O-])cc2)[C@@H](c2ccc(CO)cc2I)N1C1CCCCC1`
A. 0.95

Q. Requested field: composite z-score. Item: `C=CCOC(=O)[C@@H]1[C@H]2C(=O)O[C@H](c3ccccc3)[C@H](c3ccccc3)N2[C@H](c2ccc(OCCOC(=O)[C@@H]3C[C@@H]4C(=O)NCC(=O)N4[C@@H]3c3ccc(O)cc3)cc2)[C@@]12C(=O)Nc1ccc(I)cc12`
A. 0.778

Q. Requested field: composite z-score. Item: `COCCOC(=O)N1C(=O)[C@@]2(c3cc(C#Cc4ccc(OC)cc4)ccc31)[C@H](c1ccc(O)cc1)N1[C@H](c3ccccc3)[C@H](c3ccccc3)OC(=O)[C@H]1[C@@H]2C(=O)N1CCc2cc(OC)c(OC)cc2C1`
A. 0.87

Q. Requested field: composite z-score. Item: `CC(C)(C)OC(=O)CC[C@]1(C(=O)N2CCOCC2)N=C(c2ccc(OCCCO)cc2)O[C@H]1c1ccccc1N=[N+]=[N-]`
A. 0.838

Q. Requested field: composite z-score. Item: `COc1ccc(/C=C/C=O)cc1`
A. 0.144

Q. Requested field: composite z-score. Item: CC(CO)N1C(=O)[C@@H]2C3C(=O)OCCC/C=C\[C@H]3OC23C=CCN(C(C)(C)C)C(=O)[C@@H]13 (stereo partly drawn)
A. 0.733

Q. Requested field: composite z-score. Item: `C=CCOC(=O)[C@H]1[C@@H]2C(=O)O[C@@H](c3ccccc3)[C@@H](c3ccccc3)N2[C@@H](c2ccc(OCCOC(=O)[C@H]3C[C@H]4C(=O)N[C@@H](CCCCNC(C)=O)C(=O)N4[C@H]3c3cccc(OCCO)c3)cc2)[C@]12C(=O)Nc1ccccc12`
A. 1

Q. Requested field: composite z-score. Item: `COC(=O)[C@]1(CCC(=O)OC(C)(C)C)N=C(c2ccc(OCCCO)cc2)O[C@@H]1c1ccccc1CN=[N+]=[N-]`
A. -0.0569

Q. Requested field: composite z-score. Item: CC1CC/C=C\[C@H]2OC34C=CCN(Cc5ccccc5)C(=O)[C@H]3N(CCCO)C(=O)[C@@H]4C2C(=O)O1 (stereo partly drawn)
A. 0.141

Q. Requested field: composite z-score. Item: `COc1ccc([Si](C)(C)[C@H]2[C@H](CC(=O)N3Cc4ccccc4C[C@H]3CO)O[C@@]3(C(=O)N(Cc4cccc(N5CCC5=O)c4)c4ccccc43)[C@@H]2C)cc1`
A. 0.479
